- Test protocol: Food effect PK study, two single oral 1000 mg doses of abiraterone acetate, fed (high fat) vs fasted
- Assay type: in vivo, human
- Measurement parameters: human, plasma, oral, 1000 mg, Patient 21; Fed; sample time 6.000
Outcome measure: concentration at 6 h (nM)
Report only the number, with the unit nM understood.

IN: Fill in reported concentration at 6 h for this entry: `C[C@]12CC[C@H](O)CC1=CC[C@@H]1[C@@H]2CC[C@]2(C)C(c3cccnc3)=CC[C@@H]12`
OUT: 1280

* * *

- Test protocol: Food effect PK study, two single oral 1000 mg doses of abiraterone acetate, fed (high fat) vs fasted
- Type: in vivo, human
- Measurement parameters: human, plasma, oral, 1000 mg, Patient 21; Fasted; sample time 71.700
Outcome measure: concentration at 71.7 h
Quote the value and follow it with the unit of measurement.

IN: Answer with reported concentration at 71.7 h of C[C@]12CC[C@H](O)CC1=CC[C@@H]1[C@@H]2CC[C@]2(C)C(c3cccnc3)=CC[C@@H]12 [Abiraterone]
OUT: 15.2 nM
